Below: a set of entries, each annotated with reported pIC50.
target_under_test: CtermHisTag-mEGFR Wild type (Homo sapiens, UniProt P00533)
Sequence (P00533 whole entry): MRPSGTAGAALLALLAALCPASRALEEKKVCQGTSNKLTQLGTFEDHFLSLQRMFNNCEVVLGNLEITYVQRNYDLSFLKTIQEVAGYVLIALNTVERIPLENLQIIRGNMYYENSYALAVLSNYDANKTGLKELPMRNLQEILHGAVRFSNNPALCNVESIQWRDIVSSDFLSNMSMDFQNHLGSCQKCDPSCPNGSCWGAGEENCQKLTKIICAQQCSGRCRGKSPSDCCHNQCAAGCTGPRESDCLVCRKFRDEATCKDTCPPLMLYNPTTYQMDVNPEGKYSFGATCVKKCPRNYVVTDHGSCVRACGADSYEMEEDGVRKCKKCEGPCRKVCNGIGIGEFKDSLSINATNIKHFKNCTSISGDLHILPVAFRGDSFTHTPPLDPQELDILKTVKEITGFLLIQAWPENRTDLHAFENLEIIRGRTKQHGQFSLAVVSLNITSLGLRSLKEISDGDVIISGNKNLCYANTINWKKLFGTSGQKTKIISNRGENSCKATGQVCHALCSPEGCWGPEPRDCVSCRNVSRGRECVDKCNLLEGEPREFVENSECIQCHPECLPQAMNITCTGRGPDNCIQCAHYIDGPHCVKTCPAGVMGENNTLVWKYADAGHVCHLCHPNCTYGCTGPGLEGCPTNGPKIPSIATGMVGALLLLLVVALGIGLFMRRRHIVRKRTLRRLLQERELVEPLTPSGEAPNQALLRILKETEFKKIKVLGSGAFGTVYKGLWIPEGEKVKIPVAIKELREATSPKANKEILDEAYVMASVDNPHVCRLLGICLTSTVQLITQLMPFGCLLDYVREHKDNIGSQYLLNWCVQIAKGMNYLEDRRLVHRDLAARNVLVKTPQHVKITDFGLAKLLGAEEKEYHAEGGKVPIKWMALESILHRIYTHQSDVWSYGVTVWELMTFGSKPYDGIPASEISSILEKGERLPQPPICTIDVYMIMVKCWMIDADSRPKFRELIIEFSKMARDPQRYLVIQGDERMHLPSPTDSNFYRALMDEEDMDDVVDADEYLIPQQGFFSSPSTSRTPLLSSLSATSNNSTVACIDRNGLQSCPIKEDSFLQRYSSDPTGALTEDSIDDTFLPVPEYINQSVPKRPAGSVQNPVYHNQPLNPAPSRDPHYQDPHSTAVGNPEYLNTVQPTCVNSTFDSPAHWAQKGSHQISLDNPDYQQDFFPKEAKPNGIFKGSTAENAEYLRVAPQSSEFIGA
test_summary: biochemical
pIC50: −log10 of the molar value.

| compound | pIC50 |
| --- | --- |
| C#Cc1c(-c2ccccc2Cl)c(=O)n(C)c2nc(Nc3ccc(N(C)CCN(C)C)cc3)ncc12 | > 6.00 |
| C#Cc1c(-c2ccccc2Cl)c(=O)n(C)c2nc(Nc3cccc(CO)c3)ncc12 | > 6.00 |
| C#Cc1cc(=O)n2c3nc(ncc13)Nc1cccc(c1)COC/C=C\C2 | > 6.00 |
| C#Cc1cc(=O)n(C)c2nc(Nc3ccc(N(C)CCN(C)C)cc3)ncc12 | 5.00 to 6.00 |
| C=Cc1cc(=O)n(-c2ccc(OC)cc2OC)c2nc(Nc3ccc(N(C)CCN(C)C)cc3)ncc12 | 5.00 to 6.00 |
| C#Cc1cc(=O)n([C@H]2CC[C@@H](NC(=O)CN(C)C)CC2)c2nc(Nc3ccccc3OC)ncc12 | 5.00 to 6.00 |
| C#Cc1cc(=O)n(Cc2ccn(C)n2)c2nc(Nc3ccc(N4CCN(C)CC4)cc3)ncc12 | > 6.00 |
| C#Cc1cc(=O)n2c3nc(ncc13)Nc1cccc(c1)OC[C@H]1CC[C@H](C1)C2 | < 5.00 |
| C#Cc1cc(=O)n(C2CC(=O)N(C)C2)c2nc(Nc3ccc(N4CCN(C)CC4)cc3)ncc12 (centres unmarked) | < 5.00 |
| C#Cc1c(-c2cc(F)ccc2Cl)c(=O)n(C)c2nc(Nc3ccc(N(C)CCN(C)C)cc3)ncc12 | > 6.00 |
| C#Cc1c(C)c(=O)n(Cc2cnco2)c2nc(Nc3ccc(N4CCN(C)CC4)cc3)ncc12 | > 6.00 |
| C#Cc1c(C#N)c(=O)n(-c2ccccc2)c2nc(Nc3ccccc3OC)ncc12 | < 5.00 |
| C#Cc1cc(=O)n2c3nc(ncc13)Nc1ccc(N3CCN(C)CC3)c(c1)OCCCCC2C (centres unmarked) | 5.00 to 6.00 |
| C#Cc1cc(=O)n(CC2CCOC2)c2nc(Nc3ccc(N4CCN(C)CC4)cc3)ncc12 (centres unmarked) | > 6.00 |
| C#Cc1cc(=O)n2c3nc(ncc13)Nc1ccc(N3CCN(C)CC3)c(c1)CN(C)C(=O)CC2 | > 6.00 |
| C#Cc1cc(=O)n(C)c2nc(Nc3ccc(N4CCN(C)CC4)c(OCC4CCCC4)c3)ncc12 | > 6.00 |
| C#Cc1cc(=O)n(-c2ccc(NC(=O)C3CC3)cc2)c2nc(Nc3ccccc3OC)ncc12 | 5.00 to 6.00 |
| C#Cc1cc(=O)n2c3nc(ncc13)Nc1ccc(N3CCN(C)CC3)c(c1)NC(=O)CCC2 | > 6.00 |
| C#Cc1cc(=O)n(-c2ccccc2)c2nc(Nc3ccc(N4CCC(N5CC(C(C)(C)O)C5)CC4)cc3)ncc12 | > 6.00 |
| C#Cc1cc(=O)n([C@H]2CC[C@@H](NC(=O)Cc3cn[nH]c3)CC2)c2nc(Nc3ccc(N4CCN(C)CC4)cc3)ncc12 | > 6.00 |
| C#Cc1c(Nc2ccccc2)c(=O)n(C)c2nc(Nc3ccc(N(C)CCN(C)C)cc3)ncc12 | > 6.00 |
| C#Cc1c(-c2ccccc2Cl)c(=O)n(C)c2nc(Nc3ccccc3)ncc12 | < 5.00 |
| C#Cc1cc(=O)n(-c2ccccc2)c2nc(Nc3ccc(N4CCC(N5CCN(C)CC5)CC4)cc3)ncc12 | > 6.00 |

====

target_under_test: Phospho-EGFR (Tyr1068) in H1975 cells (Homo sapiens, UniProt P00533, L858R/T790M)
Sequence (P00533 25-1210 T790M/L858R): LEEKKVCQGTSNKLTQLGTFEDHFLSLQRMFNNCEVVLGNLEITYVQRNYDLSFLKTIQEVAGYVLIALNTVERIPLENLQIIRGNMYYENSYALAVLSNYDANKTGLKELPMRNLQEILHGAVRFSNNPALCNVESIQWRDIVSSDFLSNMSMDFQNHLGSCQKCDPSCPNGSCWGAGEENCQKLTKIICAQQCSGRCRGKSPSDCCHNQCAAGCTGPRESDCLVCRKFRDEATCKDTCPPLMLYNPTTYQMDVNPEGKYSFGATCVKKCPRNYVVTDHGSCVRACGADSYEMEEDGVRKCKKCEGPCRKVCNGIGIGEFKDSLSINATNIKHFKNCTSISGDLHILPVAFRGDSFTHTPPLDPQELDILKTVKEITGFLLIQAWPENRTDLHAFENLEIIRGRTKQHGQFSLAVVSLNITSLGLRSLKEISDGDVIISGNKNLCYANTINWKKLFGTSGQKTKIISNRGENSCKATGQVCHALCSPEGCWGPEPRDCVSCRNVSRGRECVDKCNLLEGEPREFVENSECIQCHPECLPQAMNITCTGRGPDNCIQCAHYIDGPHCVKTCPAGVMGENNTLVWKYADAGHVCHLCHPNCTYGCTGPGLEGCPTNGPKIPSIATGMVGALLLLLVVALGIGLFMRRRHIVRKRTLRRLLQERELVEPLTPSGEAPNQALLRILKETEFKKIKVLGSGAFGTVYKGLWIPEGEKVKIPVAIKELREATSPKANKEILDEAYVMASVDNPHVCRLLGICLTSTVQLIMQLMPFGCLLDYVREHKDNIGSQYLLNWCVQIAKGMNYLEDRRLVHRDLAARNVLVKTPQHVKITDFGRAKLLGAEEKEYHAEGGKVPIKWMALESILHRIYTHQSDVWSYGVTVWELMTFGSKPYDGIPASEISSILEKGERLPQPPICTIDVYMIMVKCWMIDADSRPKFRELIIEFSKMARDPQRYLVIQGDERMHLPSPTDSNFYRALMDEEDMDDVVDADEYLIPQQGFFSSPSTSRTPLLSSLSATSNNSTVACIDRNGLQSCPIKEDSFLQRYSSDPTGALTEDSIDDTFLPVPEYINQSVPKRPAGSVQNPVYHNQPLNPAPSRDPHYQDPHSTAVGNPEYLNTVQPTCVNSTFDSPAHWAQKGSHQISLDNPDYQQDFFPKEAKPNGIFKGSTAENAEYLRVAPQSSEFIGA
test_summary: HTRF pEGFR/total EGFR in H1975 cells
protocol_conditions: ratio pEGFR/total EGFR, compound 3 hours
measurement_name: IC50

| query_smiles | target_under_test | measurement_name | assay_result |
| --- | --- | --- | --- |
| C#Cc1cc(=O)n(-c2ccccc2)c2nc(Nc3ccc(C4CCN(C)CC4)cc3)ncc12 | Phospho-EGFR (Tyr1068) in H1975 cells (Homo sapiens, UniProt P00533, L858R/T790M) | IC50 | < 500 nM |
| C#Cc1cc(=O)n2c3nc(ncc13)Nc1ccc(N3CCN(C)CC3)c(c1)CCNC(=O)C2 | Phospho-EGFR (Tyr1068) in H1975 cells (Homo sapiens, UniProt P00533, L858R/T790M) | IC50 | > 3000 nM |
| C#Cc1c(-c2ccccc2Cl)c(=O)n(C)c2nc(Nc3ccc(OCCN(C)C)cc3)ncc12 | Phospho-EGFR (Tyr1068) in H1975 cells (Homo sapiens, UniProt P00533, L858R/T790M) | IC50 | 500 to 1000 nM |

====

target_under_test: UniProtKB P00533
test_summary: biochemical
pIC50: −log10 of the molar value.
measurement_name: pIC50

| molecule | measurement_name | assay_result |
| --- | --- | --- |
| C#Cc1c(C)c(=O)n(Cc2ccn[nH]2)c2nc(Nc3ccc(N4CCN(C)CC4)cc3)ncc12 | pIC50 | 5.00 to 6.00 |
| C#Cc1cc(=O)n(-c2ccccc2)c2nc(Nc3cnn(C)c3)ncc12 | pIC50 | > 6.00 |
| C#Cc1cc(=O)n(-c2ccccc2)c2nc(Nc3ccc(N4CCNC(C)C4)cc3)ncc12 (centres unmarked) | pIC50 | > 6.00 |
| C#Cc1cc(=O)n(C)c2nc(Nc3ccc(N4CCN(C)CC4)c(OCCC4CCCC4)c3)ncc12 | pIC50 | > 6.00 |
| C#Cc1c(-c2ccncc2Cl)c(=O)n(C)c2nc(Nc3ccc(N(C)CCN(C)C)cc3)ncc12 | pIC50 | > 6.00 |
| C#Cc1c(-c2ccccc2Cl)c(=O)n(C)c2nc(Nc3ccccc3OC)ncc12 | pIC50 | < 5.00 |
| C#Cc1cc(=O)n2c3nc(ncc13)Nc1ccc(N3CCN(C)CC3)c(c1)OCCOCC2 | pIC50 | > 6.00 |
| C#Cc1cc(=O)n2c3nc(ncc13)Nc1ccc(N3CCN(C)CC3)c(c1)CNC(=O)CCC2 | pIC50 | > 6.00 |
| C#Cc1cc(=O)n(-c2ccccc2)c2nc(Nc3cnn(C4CCN(C)CC4)c3)ncc12 | pIC50 | > 6.00 |
| C#Cc1cc(=O)n(-c2cccc(N)c2)c2nc(Nc3ccccc3OC)ncc12 | pIC50 | 5.00 to 6.00 |
| C#Cc1cc(=O)n2c3nc(ncc13)Nc1ccc(N3CCN(C)CC3)c(c1)C(=O)NCCC2 | pIC50 | < 5.00 |
| C#Cc1cc(=O)n2c3nc(ncc13)Nc1cccc(c1)OCCC2 | pIC50 | < 5.00 |
| C#Cc1c(C)c(=O)n(-c2ccccc2)c2nc(Nc3ccc(N4CCN(C)CC4)cc3)ncc12 | pIC50 | 5.00 to 6.00 |
| C#Cc1c(C)c(=O)n(Cc2ccncc2)c2nc(Nc3ccc(N4CCN(C)CC4)cc3)ncc12 | pIC50 | 5.00 to 6.00 |

====

Below: a set of entries, each annotated with reported IC50.
target_under_test: Phospho-EGFR (Tyr1068) in A431 cells (Homo sapiens, UniProt P00533)
Construct: endogenous in cells
Sequence (P00533 25-1210): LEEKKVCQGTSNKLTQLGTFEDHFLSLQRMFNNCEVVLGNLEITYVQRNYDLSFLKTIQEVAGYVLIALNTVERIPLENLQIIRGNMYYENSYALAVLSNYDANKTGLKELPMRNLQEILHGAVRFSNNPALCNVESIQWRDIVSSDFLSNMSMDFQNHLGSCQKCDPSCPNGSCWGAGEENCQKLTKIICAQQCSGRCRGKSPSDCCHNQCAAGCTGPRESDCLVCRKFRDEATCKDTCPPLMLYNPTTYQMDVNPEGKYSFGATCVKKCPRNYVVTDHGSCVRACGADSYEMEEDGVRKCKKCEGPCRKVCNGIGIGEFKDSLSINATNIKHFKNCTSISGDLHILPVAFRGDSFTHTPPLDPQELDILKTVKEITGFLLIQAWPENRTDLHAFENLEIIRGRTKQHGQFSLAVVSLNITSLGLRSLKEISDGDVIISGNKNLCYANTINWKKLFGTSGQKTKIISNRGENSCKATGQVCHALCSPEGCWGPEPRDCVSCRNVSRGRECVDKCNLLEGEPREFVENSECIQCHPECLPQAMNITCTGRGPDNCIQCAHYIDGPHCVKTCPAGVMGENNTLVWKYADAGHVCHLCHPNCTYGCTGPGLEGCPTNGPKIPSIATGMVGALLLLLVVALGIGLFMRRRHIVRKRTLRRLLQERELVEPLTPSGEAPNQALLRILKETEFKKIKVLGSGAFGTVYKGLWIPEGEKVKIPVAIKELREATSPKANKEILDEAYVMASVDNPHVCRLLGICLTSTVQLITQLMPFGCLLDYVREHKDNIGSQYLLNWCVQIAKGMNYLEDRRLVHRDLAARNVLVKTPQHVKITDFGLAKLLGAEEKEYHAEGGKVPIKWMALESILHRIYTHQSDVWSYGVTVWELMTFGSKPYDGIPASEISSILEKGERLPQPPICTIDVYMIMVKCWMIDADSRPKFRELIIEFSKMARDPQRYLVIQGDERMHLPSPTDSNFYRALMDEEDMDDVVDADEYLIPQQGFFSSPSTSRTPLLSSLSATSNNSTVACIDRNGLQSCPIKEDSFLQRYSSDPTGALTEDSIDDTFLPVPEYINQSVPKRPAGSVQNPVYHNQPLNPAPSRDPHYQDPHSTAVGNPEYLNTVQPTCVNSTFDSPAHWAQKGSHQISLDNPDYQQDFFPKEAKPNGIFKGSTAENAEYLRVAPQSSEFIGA
test_summary: HTRF pEGFR/total EGFR in A431 cells with EGF stimulation
protocol_conditions: ratio pEGFR/total EGFR, compound 2.5 hours then 100 ng/ml EGF 30 mins
measurement_name: IC50

| compound | assay_result |
| --- | --- |
| C#Cc1c(C)c(=O)n(Cc2ccn(C)n2)c2nc(Nc3ccc(N4CCN(C)CC4)cc3)ncc12 [Example 110] | 1 to 3 µM |
| C#Cc1cc(=O)n([C@H]2CC[C@@H](CO)CC2)c2nc(Nc3ccc(N(C)CCN(C)C)cc3)ncc12 [Example 80] | 1 to 3 µM |
| C=Cc1c(-c2ccccc2Cl)c(=O)n(C)c2nc(Nc3ccc(OCCN(C)C)cc3)ncc12 [Example 172] | > 3 µM |

====

target_under_test: Phospho-EGFR (Tyr1068) in A431 cells (Homo sapiens, UniProt P00533)
Construct: endogenous in cells
test_summary: HTRF pEGFR/total EGFR in A431 cells with EGF stimulation
protocol_conditions: ratio pEGFR/total EGFR, compound 2.5 hours then 100 ng/ml EGF 30 mins
Description: Cells were plated at 20,000 cells per well in 96 well plates and placed at 37° C. 5% CO2. Once adhered (after 24 h) cells were treated with compounds dissolved in DMSO at a final concentration of 0.1% DMSO in media. […] Cells were lysed on a plate shaker (2000 rpm) for 30 minutes at room temperature. pEGFR expression was monitored using the Cisbio Phospho-EGFR (Tyr1068) cellular kit (64EG1PEH). […] Fluorescence emission was read at two different wavelengths (665 nm and 620 nm) on a PheraStar. […]
Structures can show the parent of a compound that is named as a salt.
Below: a set of entries, each annotated with reported IC50.
measurement_name: IC50

| compound | target_under_test | assay_result |
| --- | --- | --- |
| C#Cc1cc(=O)n([C@H]2CC[C@@H](NC(=O)C(C)C)CC2)c2nc(Nc3ccc(N4CCN(C)CC4)cc3)ncc12 | Phospho-EGFR (Tyr1068) in A431 cells (Homo sapiens, UniProt P00533) | > 3 µM |
| C#Cc1cc(=O)n([C@H]2CC[C@H](NC(=O)c3ccnnc3)CC2)c2nc(Nc3ccc(N4CCN(C)CC4)cc3)ncc12 | Phospho-EGFR (Tyr1068) in A431 cells (Homo sapiens, UniProt P00533) | > 3 µM |
| C#Cc1cc(=O)n([C@H]2CC[C@@H](NC(=O)CCN(C)C)CC2)c2nc(Nc3ccc(N4CCN(C)CC4)cc3)ncc12 | Phospho-EGFR (Tyr1068) in A431 cells (Homo sapiens, UniProt P00533) | > 3 µM |
| C#Cc1c(C)c(=O)n(Cc2ncc[nH]2)c2nc(Nc3ccc(N4CCN(C)CC4)cc3)ncc12 | Phospho-EGFR (Tyr1068) in A431 cells (Homo sapiens, UniProt P00533) | > 3 µM |
| C#Cc1cc(=O)n(C(C)C)c2nc(Nc3ccc(N4CCN(C)CC4)cc3)ncc12 | Phospho-EGFR (Tyr1068) in A431 cells (Homo sapiens, UniProt P00533) | > 3 µM |
| C#Cc1cc(=O)n(-c2ccccc2)c2nc(Nc3ccc(N4CCC(N5CC(F)(CO)C5)CC4)cc3)ncc12 | Phospho-EGFR (Tyr1068) in A431 cells (Homo sapiens, UniProt P00533) | > 3 µM |
| C#Cc1cc(=O)n(C)c2nc(Nc3ccc(N4CCN(C)CC4)c(OCCC4CCCC4)c3)ncc12 | Phospho-EGFR (Tyr1068) in A431 cells (Homo sapiens, UniProt P00533) | < 0.5 µM |
| C#Cc1cc(=O)n(-c2ccc(NC(=O)COC(C)=O)cc2)c2nc(Nc3ccccc3OC)ncc12 | Phospho-EGFR (Tyr1068) in A431 cells (Homo sapiens, UniProt P00533) | > 3 µM |
| C#Cc1cc(=O)n(-c2ccccc2)c2nc(Nc3cnn(C4CCN(C)CC4)c3)ncc12 | Phospho-EGFR (Tyr1068) in A431 cells (Homo sapiens, UniProt P00533) | > 3 µM |
| C#Cc1cc(=O)n(-c2ccccc2)c2nc(Nc3ccc(N4CCC(N5CCN(C)CC5)CC4)cc3)ncc12 | Phospho-EGFR (Tyr1068) in A431 cells (Homo sapiens, UniProt P00533) | 1 to 3 µM |
| C#Cc1cc(=O)n2c3nc(ncc13)Nc1ccc(N3CCN(C)CC3)c(c1)C(=O)NCCC2 | Phospho-EGFR (Tyr1068) in A431 cells (Homo sapiens, UniProt P00533) | > 3 µM |
| C#Cc1cc(=O)n(C)c2nc(Nc3ccc(N4CCN(C)CC4)cc3)ncc12 | Phospho-EGFR (Tyr1068) in A431 cells (Homo sapiens, UniProt P00533) | > 3 µM |
| C#Cc1cc(=O)n(-c2ccccc2)c2nc(Nc3ccc(N4CCCNCC4)cc3)ncc12 | Phospho-EGFR (Tyr1068) in A431 cells (Homo sapiens, UniProt P00533) | 1 to 3 µM |
| C#Cc1cc(=O)n(C)c2nc(Nc3ccc(N4CCN(C)CC4)c(OCCc4ccccc4)c3)ncc12 | Phospho-EGFR (Tyr1068) in A431 cells (Homo sapiens, UniProt P00533) | 1 to 3 µM |
| C#Cc1cc(=O)n(-c2ccccc2)c2nc(Nc3ccc(N4CCN(C)CC4)cc3)ncc12 | Phospho-EGFR (Tyr1068) in A431 cells (Homo sapiens, UniProt P00533) | 1 to 3 µM |
| C#Cc1cc(=O)n(C2CCCC2O)c2nc(Nc3ccc(N4CCN(C)CC4)cc3)ncc12 (stereo not drawn) | Phospho-EGFR (Tyr1068) in A431 cells (Homo sapiens, UniProt P00533) | > 3 µM |
| C#Cc1cc(=O)n2c3nc(ncc13)Nc1ccc(N3CCN(CCOC)CC3)c(c1)NC(=O)CCC2 | Phospho-EGFR (Tyr1068) in A431 cells (Homo sapiens, UniProt P00533) | 1 to 3 µM |
| C#Cc1cc(=O)n(-c2ccccc2)c2cc(Nc3ccccc3OC)ncc12 | Phospho-EGFR (Tyr1068) in A431 cells (Homo sapiens, UniProt P00533) | > 3 µM |
| C#Cc1cc(=O)n(C)c2nc(Nc3ccc(N4CCN(C)CC4)c(OCCC(C)C)c3)ncc12 | Phospho-EGFR (Tyr1068) in A431 cells (Homo sapiens, UniProt P00533) | 1 to 3 µM |
| C#Cc1cc(=O)n2c3nc(ncc13)Nc1ccc(N3CCN(C)CC3)c(c1)OCCC[C@H]2C | Phospho-EGFR (Tyr1068) in A431 cells (Homo sapiens, UniProt P00533) | > 3 µM |
| C#Cc1cc(=O)n2c3nc(ncc13)Nc1ccc(N3CCN(C)CC3)c(c1)CCNC(=O)C2 | Phospho-EGFR (Tyr1068) in A431 cells (Homo sapiens, UniProt P00533) | > 3 µM |
| C#Cc1cc(=O)n([C@@H]2CCCN(C(=O)CC)C2)c2nc(Nc3ccc(N(C)CCN(C)C)cc3)ncc12 [Example 77, trifluoroacetic acid salt] | Phospho-EGFR (Tyr1068) in A431 cells (Homo sapiens, UniProt P00533) | > 3 µM |
| C#Cc1cc(=O)n2c3nc(ncc13)Nc1ccc(N3CCN(C)CC3)c(c1)N(C)C(=O)CCC2 | Phospho-EGFR (Tyr1068) in A431 cells (Homo sapiens, UniProt P00533) | > 3 µM |
| C#Cc1cc(=O)n(C2CCCC2)c2nc(Nc3cccc(N(C)[C@H]4C[C@H](CS(C)(=O)=O)C4)c3)ncc12 | Phospho-EGFR (Tyr1068) in A431 cells (Homo sapiens, UniProt P00533) | > 3 µM |
